Listed here are compounds together with their documented composite Z-score.
Test Protocol: probe aXIP binding to arrayed compounds – biochemical, NeuroSMM set, 635/667 nm fluorescence, primary screen (AID 1119);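 further: probe is the protein aXip251-270 applied at 1 µg/mL to compound-printed slides; binding of probe to printed compounds measured as 667 nm fluorescence plus signal to noise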
Condition Summary: small-molecule microarray, higher = more signal, called active from +8 up or from −8 down
Give only the figure.

Take a look at these entries with their results.
CCCNC(=O)[C@@H]1c2ccccc2C(=O)N(Cc2ccc(OC(F)(F)F)cc2)[C@H]1c1ccc(CO)cc1 = -0.123
Cc1ccc(NN2C(C(O)c3c(F)cccc3Cl)C=CC3C(=O)N(C4CCCCC4)C(=O)C32)cc1 (stereo not given) = 0.788

# composite Z-score lookup, item CC(C)[Si]1(C(C)C)OCc2cc(-c3ccc(-c4ccc(Cl)c(Cl)c4)o3)nc(-c3ccccc3)c21
0.131

Likewise for C=CCNC(=O)[C@H]1[C@@H]2C(=O)O[C@@H](c3ccccc3)[C@@H](c3ccccc3)N2[C@@H](c2ccccc2OCCO)[C@]12C(=O)N(C(=O)OCCOC)c1ccc(C#CC3(O)CCCCCC3)cc12 ?
0.359

Likewise for C#CCN(Cc1ccccc1Br)[C@H](/C=C/c1ccccc1)[C@@H](O)Cc1ccccc1 ?
0.258

Likewise for O=C(O)[C@@H]1[C@@H]2C(=O)N(c3ccccc3)C(=O)[C@@H]2C[C@@H]1Sc1ccccc1 ?
0.0618

Likewise for CCOC(=O)C=Cc1cccc(C)c1O ?
-0.352

Likewise for CCOC(=O)C[C@H]1[C@H](OC(=O)c2cc3ccccc3oc2=O)[C@@H](NC(=O)c2ccc3ccccc3n2)c2cc(OCCCO)ccc2N1C(=O)Cc1ccc(OC)cc1 ?
0.35

Likewise for CCOC(=O)C[C@H]1[C@H](OC(=O)c2ccc(C(=O)c3ccccc3)cc2)[C@@H](NC(=O)c2ccc3ccccc3n2)c2cc(OCCCO)ccc2N1C(=O)Cc1ccc(OC)cc1 ?
-0.201

Likewise for O=C1[C@H]2C=C(I)[C@H](C[C@@H]2OCCOCCO)[C@@]12CO2 ?
-0.175

* * *

Test system: Human papillomavirus type 1a protein E7 (residues 44-93)
Test Protocol: small molecules binding HPV E7 44-93 – biochemical, small-molecule microarray, residues 44-93, 635 nm fluorescence, primary screen (AID 1108);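 further: E7 fragment applied at 1 µg/mL in TBST for 1 h at 4 C; score combines spot fluorescence with its signal to noise ratio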
Condition Summary: fluorescence 635 nm, higher = more signal
Given measured composite z-score, output 1 (yes) if it is greater than or equal to 1 and 0 (no) if not.

C=CC[C@@H](OC(=O)Nc1ccc(OC)cc1)c1ccc(O)c(F)c1 = 0 (no)

Let's switch to this compound now.
Does composite z-score meet or surpass 1 for COCCOC(=O)N1C(=O)[C@@]2(c3cc(C#CCCO)ccc31)[C@H](C(=O)Nc1nc3ccccc3s1)[C@H]1C(=O)O[C@H](c3ccccc3)[C@H](c3ccccc3)N1[C@@H]2c1ccc(O)cc1 ?
1 (yes)

* * *

System: Sonic hedgehog protein (Shh)
Test Protocol: Sonic hedgehog microarray binding compounds – biochemical, small-molecule microarray, 635/667 nm fluorescence, primary screen (AID 1151);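 further: Shh protein binding to compounds spotted on small-molecule microarray slides; score combines spot fluorescence intensity with signal-to-noise across triplicate slides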
Condition Summary: 635 nm fluorescence, higher = more signal
Reported Endpoint: composite z-score
Give only the figure.

CCCCCN1CC=CC23O[C@@H]4C=CCCOC(=O)C4[C@H]2C(=O)N(CCCCCCO)[C@@H]3C1=O (stereo not given in full) = 0.0725

Enter reported composite z-score observed with Sonic hedgehog protein (Shh) for CO[C@H]1O[C@H](CO)[C@@H](OC(=O)Nc2ccc3c(c2)OCO3)[C@H](OC(=O)Nc2ccc3c(c2)OCO3)[C@@H]1OC(=O)Nc1ccc2c(c1)OCO2
0.164

Likewise for CC(C)[Si]1(C(C)C)OCc2cc(C3CC3)nc(-c3ccc(Oc4ccccc4)cc3)c21 ?
-0.241

Likewise for [N-]=[N+]=Nc1ccccc1C[C@@]1(C(=O)N2CCOCC2)N=C(c2ccc(OCCCO)cc2)O[C@@H]1c1ccccc1 ?
-0.227

Likewise for NC(=O)[C@@]1(Cc2ccccc2)COC(c2ccc(OCCCO)cc2)=N1 ?
-0.429
